system: EKVX; test: NCI tumour cell line growth inhibition, 48 h
Activity calls are given as the source filed them. Cut-off read from the data, not from the text of the source: active = GI50 up to about 1.1 µM and inactive = higher.
Below, each entry is listed alongside its reported GI50.
property: GI50

[[record]]
compound = "COC(=O)c1ccccc1/C=C1\\Cc2ccc3c(c2C1=O)CCCC3"
target_or_system = "EKVX"
property = "GI50"
observed_result = "> 100 µM (inactive)"

[[record]]
compound = "O=C1N=NC(=O)N1c1cc(C(F)(F)F)cc(C(F)(F)F)c1"
target_or_system = "EKVX"
property = "GI50"
observed_result = "3.24 µM (inactive)"

[[record]]
compound = "COc1cc(/C=C(\\NC(=O)c2ccccc2)c2nc3cncnc3[nH]2)cc(OC)c1OC"
target_or_system = "EKVX"
property = "GI50"
observed_result = "> 100 µM (inactive)"

[[record]]
compound = "CCCCCCCCCCC(O)CCCCCCC(=O)O (centres undefined)"
target_or_system = "EKVX"
property = "GI50"
observed_result = "31.7 µM (inactive)"

[[record]]
compound = "O=C(N/N=C1\\C(=O)Nc2ccc(Br)cc21)/C(O)=C/C(=O)c1ccc(Cl)cc1"
target_or_system = "EKVX"
property = "GI50"
observed_result = "45.8 µM (inactive)"

[[record]]
compound = "Cn1c(-c2cccc([N+](=O)[O-])c2)[n+](C)c2ccccc21"
target_or_system = "EKVX"
property = "GI50"
observed_result = "> 100 µM (inactive)"

[[record]]
compound = "CC1OC(OCC2OC(Oc3c(-c4ccc(O)cc4)oc4cc(O)cc(O)c4c3=O)C(OC3OCC(O)(CO)C3O)C(O)C2O)C(O)C(O)C1O (centres undefined)"
target_or_system = "EKVX"
property = "GI50"
observed_result = "> 100 µM (inactive)"

[[record]]
compound = "C=C1[C@@H](OC(C)=O)[C@H]2[C@@H](OC(C)=O)[C@@](C)(OC(C)=O)C[C@]2(OC(C)=O)C(=O)[C@@H](C)/C=C/C(C)(C)C(=O)C[C@H]1OC(C)=O"
target_or_system = "EKVX"
property = "GI50"
observed_result = "83.9 µM (inactive)"

[[record]]
compound = "CSC(=N)N1N=C2/C(=C/c3ccccc3)CCC[C@H]2[C@H]1c1ccccc1"
target_or_system = "EKVX"
property = "GI50"
observed_result = "4.56 µM (inactive)"

